# experiment description: MAD study: nacubactam pharmacokinetics, multiple doses and single dose alone or with meropenem
# Type: in vivo, human
# assay conditions: human, plasma, intravenous, 4000 mg, MAD part 2, 4,000 mg q8h for 7 days, day 9, n = 6, geometric mean (%CV); read-out: Vss
quantity: Vd at 7 days (L)
Give bare numbers, in L.

Data request: Please report the recorded Vd at 7 days for NCCONC(=O)[C@@H]1CC[C@@H]2CN1C(=O)N2OS(=O)(=O)O [Nacubactam] .
Data returned: 20.1

----------
# experiment description: SAD study: single-dose nacubactam pharmacokinetics (plasma/urine, LC-MS/MS, noncompartmental)
# Format: in vivo
# assay conditions: human, plasma, iv, 1000 mg, single i.v. dose 1,000 mg, n = 6, mean (SD), read-out: CL (converted)
quantity: clearance (mL/min)
Answers are plain numbers, in mL/min.

Data request: Please report the recorded clearance for NCCONC(=O)[C@@H]1CC[C@@H]2CN1C(=O)N2OS(=O)(=O)O .
Data returned: 117
